These data points were gathered from patent US9303015B2.

Experimental Target: human RORγt ligand binding domain (RORγt LBD) (Homo sapiens (Human), UniProt P51449)
Sequence (P51449 other isoform, or with tags, fused parts or gaps): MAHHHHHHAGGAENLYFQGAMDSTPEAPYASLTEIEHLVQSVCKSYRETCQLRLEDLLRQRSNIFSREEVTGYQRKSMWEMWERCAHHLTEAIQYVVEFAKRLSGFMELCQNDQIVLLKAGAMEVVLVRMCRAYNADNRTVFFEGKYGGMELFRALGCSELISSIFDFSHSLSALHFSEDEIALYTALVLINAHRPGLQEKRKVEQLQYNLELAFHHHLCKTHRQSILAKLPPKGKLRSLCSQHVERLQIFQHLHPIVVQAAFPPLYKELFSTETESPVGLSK
Assay Explanation: RORγt ThermoFluor assay (thermal shift, binding affinity)
Measurement Parameters: estimated from thermal shift concentration response
Protocol: This approach is applicable to a wide variety of systems, and rigorous in theoretical interpretation through quantitation of equilibrium binding constants (KD). […] Bar-coded assay plates are robotically loaded onto a thermostatically controlled PCR-type thermal block and then heated at a typical ramp-rate of 1° C./min for all experiments. […] Images were collected at each temperature, and the sum of the pixel intensity in a given area of the assay plate was recorded versus temperature. […]
Quantity: Kd (µM)
Numbers only, in µM.

[
  {
    "Compound": "CCN(CC)c1nc2ccc(C(O)(c3ccc(Cl)cc3)c3cncn3C)cc2c(Cl)c1Nc1ccccc1 (stereo not drawn)",
    "Value Units": "µM",
    "Kd": 0.27
  }
]

Batch request: Kd for each of the following compounds.
1. CCOc1nc2ccc(C(O)(c3cccnc3)c3cccc(Cl)c3)cc2c(Cl)c1N(C)c1ccccc1 (stereo not drawn)
2. CN(c1ccccc1)c1c(Cl)nc2ccc(C(O)(c3ccc(Cl)cc3)c3cncn3C)cc2c1Cl (stereo not drawn)

1: 0.032; 2: 0.035

====

Experimental Target: human RORγt ligand binding domain (RORγt LBD) (Homo sapiens (Human))
Assay Explanation: RORγt ThermoFluor assay (thermal shift, binding affinity)
Measurement Parameters: estimated from thermal shift concentration response
Method: This approach is applicable to a wide variety of systems, and rigorous in theoretical interpretation through quantitation of equilibrium binding constants (KD). […] Bar-coded assay plates are robotically loaded onto a thermostatically controlled PCR-type thermal block and then heated at a typical ramp-rate of 1° C./min for all experiments. […] Images were collected at each temperature, and the sum of the pixel intensity in a given area of the assay plate was recorded versus temperature. […]
# note: boundary value 0.06 µM maps to rule not met; Kd below it maps to rule met

Decide: Kd of Cn1cncc1C(O)(c1ccc(C(F)(F)F)nc1)c1ccc2nc(C#N)c(Oc3ccccc3)c(C#N)c2c1 (single isomer, unassigned) [Example 22c] strictly below 0.06 µM? rule not met

Okay, and Cn1cncc1C(O)(c1ccc(Cl)cc1)c1ccc2nc(C#N)c(Oc3ccccc3)c(C#N)c2c1 (stereo not shown) ? rule met

====

Experimental Target: human RORγt LBD (Homo sapiens (Human))
Assay Explanation: RORγt reporter assay (GAL4-RORγt LBD luciferase, HEK293T cells)
Format: cell-based
Measurement Parameters: HEK293T cells, 24 hours compound treatment
Can you tell me IC50 for the items I'm about to list?
Numbers only, in µM.

[
  {
    "Compound": "CCOc1nc2ccc(C(O)(c3cccnc3)c3cccc(Cl)c3)cc2c(Cl)c1N(C)c1ccccc1 (stereo not drawn)",
    "IC50, µM": 0.089
  },
  {
    "Compound": "CN(C)c1nc2ccc(C(O)(c3ccc(Cl)cc3)c3cncn3C)cc2c(Cl)c1Oc1ccccc1 (stereo not drawn)",
    "IC50, µM": 0.36
  }
]

Consider the following items and state reported IC50 for each.
1. Cn1cncc1C(O)(c1ccc(Cl)cc1)c1ccc2nc(Cl)c(Oc3ccccc3)c(Cl)c2c1 (stereo not drawn)
2. CCN(CC)c1nc2ccc(C(O)(c3ccc(Cl)cc3)c3cncn3C)cc2c(Cl)c1Nc1ccccc1 (stereo not drawn)

0.67
0.81

Value sought for every listed compound: IC50.
1. Cn1cncc1C(O)(c1ccc(C(F)(F)F)nc1)c1ccc2nc(N3CCC3)c(Oc3ccc(Cl)cc3)c(Cl)c2c1 (stereo not drawn) [Example 30a]
2. Cn1cncc1C(O)(c1ccc(C(F)(F)F)nc1)c1ccc2nc(C#N)c(Oc3ccccc3)c(C#N)c2c1 (single isomer, unassigned) [Example 22c]
3. Cn1cncc1C(O)(c1ccc(Cl)cc1)c1ccc2nc(C#N)c(Oc3ccccc3)c(C#N)c2c1 (stereo not drawn)
4. CCN(CC)c1nc2ccc(C(O)(c3ccc(Cl)cc3)c3cncn3C)cc2c(Cl)c1Oc1ccccc1 (stereo not drawn)

1. 0.14
2. 0.68
3. 0.11
4. 0.12

====

Exercise: state measured inhibition at 6 µM for each of the compounds provided.
Experimental Target: human RORγt LBD (Homo sapiens (Human))
Assay Explanation: RORγt reporter assay (GAL4-RORγt LBD luciferase, HEK293T cells)
Type: cell-based
Measurement Parameters: HEK-293T, read-out: RORγt reporter Assay, % inhibition @ 6 μM, 6 μM, HEK293T cells
Number first, unit second.

Use the examples below as a reference point.
[
  {
    "Compound": "CCN(CC)c1nc2ccc(C(O)(c3ccc(Cl)cc3)c3cncn3C)cc2c(C(F)(F)F)c1Oc1ccccc1 (stereo not shown)",
    "Quantity": "inhibition at 6 µM",
    "Value Reported": "93%"
  },
  {
    "Compound": "Cn1cncc1C(O)(c1ccc(C(F)(F)F)nc1)c1ccc2nc(C#N)c(Oc3ccccc3)c(C#N)c2c1 (stereo not shown) [Example 22a]",
    "Quantity": "inhibition at 6 µM",
    "Value Reported": "55%"
  },
  {
    "Compound": "CCN(CC)c1nc2ccc(C(O)(c3ccc(C(F)(F)F)nc3)c3cncn3C)cc2c(Cl)c1Oc1ccccc1 (stereo not shown) [Example 6a]",
    "Quantity": "inhibition at 6 µM",
    "Value Reported": "102%"
  }
]

Pending compound:
// lookup inhibition at 6 µM for COc1ccc(C(O)(c2ccc3nc(Cl)c(Oc4ccccc4)c(Cl)c3c2)c2cncn2C)cn1 (stereo not shown) 92%

====

Experimental Target: human RORγt LBD (Homo sapiens (Human), UniProt P51449)
Sequence (P51449 258-518): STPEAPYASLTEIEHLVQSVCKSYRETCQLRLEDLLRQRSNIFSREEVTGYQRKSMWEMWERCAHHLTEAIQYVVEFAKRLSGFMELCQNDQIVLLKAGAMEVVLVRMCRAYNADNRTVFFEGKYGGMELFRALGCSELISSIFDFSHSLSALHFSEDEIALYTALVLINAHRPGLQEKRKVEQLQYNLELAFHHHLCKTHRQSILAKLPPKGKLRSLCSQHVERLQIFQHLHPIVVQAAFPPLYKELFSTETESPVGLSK
Assay Explanation: RORγt reporter assay (GAL4-RORγt LBD luciferase, HEK293T cells)
Type: cell-based
Measurement Parameters: 6 μM, HEK293T cells
Quantity: RORγt reporter Assay, % inhibition @ 6 μM (%)
Numbers only, in %.

I'm hoping you can list RORγt reporter Assay, % inhibition @ 6 μM for every molecule here, please.
1. CCN(CC)c1nc2ccc(C(O)(c3ccc(C(F)(F)F)nc3)c3cncn3C)cc2c(Cl)c1Oc1ccc(F)cc1 (single isomer, unassigned) [Example 9b]
2. Cn1cncc1C(O)(c1ccc(Cl)cc1)c1ccc2nc(N3CCC3)c(Oc3ccc(C#N)cc3)c(Cl)c2c1 (single isomer, unassigned) [Example 32c]
3. CCN(CC)c1nc2ccc(C(O)(c3ccc(C(F)(F)F)nc3)c3cncn3C)cc2c(Cl)c1Oc1ccc(F)cc1 (single isomer, unassigned) [Example 9c]
4. Cn1cncc1C(O)(c1ccc(C(F)(F)F)nc1)c1ccc2nc(C#N)c(Oc3ccccc3)c(C#N)c2c1 (single isomer, unassigned) [Example 22b]
5. CCN(CC)c1nc2ccc(C(O)(c3ccc(C(F)(F)F)nc3)c3cncn3C)cc2c(Cl)c1Oc1ccccc1 (single isomer, unassigned)
6. CCOc1nc2ccc(C(O)(c3ccc(Cl)cc3)c3cncn3C)cc2c(Cl)c1Oc1ccccc1 (single isomer, unassigned) [Example 2a]

81
101
84
48
88
88

====

Experimental Target: human RORγt LBD (Homo sapiens (Human), UniProt P51449)
Assay Explanation: RORγt reporter assay (GAL4-RORγt LBD luciferase, HEK293T cells)
Type: cell-based
Measurement Parameters: 6 μM, HEK293T cells
Provide the recorded RORγt reporter Assay, % inhibition @ 6 μM for the entries that follow.
Answers are plain numbers, in %.

# annotated cases, reported RORγt reporter Assay, % inhibition @ 6 μM shown
[
  {
    "Molecule": "COc1nc2ccc(C(O)(c3ccc(Cl)cc3)c3cncn3C)cc2c(Cl)c1Oc1ccccc1 (single isomer, unassigned) [Example 15c]",
    "Value Units": "%",
    "Value Reported": 82
  },
  {
    "Molecule": "CCN(CC)c1nc2ccc(C(O)(c3ccc(C(F)(F)F)nc3)c3cncn3C)cc2c(C(F)(F)F)c1Oc1ccc(Cl)cc1 (single isomer, unassigned) [Example 27c]",
    "Value Units": "%",
    "Value Reported": 89
  },
  {
    "Molecule": "Cn1cncc1C(O)(c1ccc(C(F)(F)F)nc1)c1ccc2nc(N3CCC3)c(Oc3ccc(Cl)cc3)c(Cl)c2c1 (single isomer, unassigned) [Example 30c]",
    "Value Units": "%",
    "Value Reported": 97
  },
  {
    "Molecule": "CCOc1nc2ccc(C(O)(c3ccc(C(F)(F)F)nc3)c3cncn3C)cc2c(C(F)(F)F)c1Oc1ccc(Cl)cc1 (single isomer, unassigned) [Example 25c]",
    "Value Units": "%",
    "Value Reported": 67
  },
  {
    "Molecule": "CCOc1nc2ccc(C(O)(c3ccc(C(F)(F)F)nc3)c3cncn3C)cc2c(Cl)c1Oc1ccc(F)cc1 (single isomer, unassigned) [Example 14c]",
    "Value Units": "%",
    "Value Reported": 18
  }
]

Switching to the query record.
What RORγt reporter Assay, % inhibition @ 6 μM value was documented for this molecule, CCOc1nc2ccc(C(O)(c3ccc(OC)nc3)c3cncn3C)cc2c(Cl)c1Oc1ccccc1 (single isomer, unassigned) [Example 10c] ? 103
